# SYSTEM NAME: T1, P6bH1
# T1 chain: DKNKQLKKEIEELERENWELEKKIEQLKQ
# ASSAY NAME: two-hybrid library CCNG1;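 also: natural log of median RNA to DNA barcode read ratio; higher means stronger binding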
// label = yes if interaction score is not less than -0.4, otherwise no

Q. Could you verify whether the entry DKIKQLKKKIEELKRENWELEKENEQLEQ [P4bH1] shows interaction score of no less than -0.4?
A. no

Q. Kindly determine if interaction score recorded for DKNKQLKKENEELERKIWELKKKIEQLKQ [P10bH1] is above or exactly -0.4.
A. yes

Q. Evaluate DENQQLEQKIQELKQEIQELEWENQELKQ [4H1348-bN] : interaction score at minimum -0.4?
A. no

Q. Is the recorded value of interaction score equal to or greater than -0.4 for this binder? DKNKQLKKEIEELERENWELEKKIEQLKQ [P6bH1]
A. no

Q. Could you tell me if the measured interaction score of DEIKQLEKEIEELERKNWELKKKNEQLKQ [P3bH1] reaches -0.4 or more?
A. yes
